Assay: Storage stability at 40 °C
Format: physicochemical
Conditions: 89 days elapsed
MEASURE: % Purity (%)
Please reply with the bare figure in % and do not write the unit itself.

Here are 3 compounds together with their reported answers.
COMPOUND | % Purity, %
CC(=O)OOC(=O)OCC1CCC(COC(=O)OOC(C)=O)CC1 (stereo not shown) | 93.4
CCCCCCCCCCCCCCCCCCOC(=O)OOC(C)=O [acetyl peroxystearyl carbonate] | 78.8
CC(C)(C)C1CCC(OC(=O)OOC(=O)OC2CCC(C(C)(C)C)CC2)CC1 (stereo not shown) | 93.2

q: Return reported % Purity. Input compound: O=C(OCCOc1ccccc1)OOC(=O)OCCOc1ccccc1 [di(phenoxyethyl) peroxydicarbonate]
a: 73.1

----------
Below, each entry is listed alongside its reported % Purity.
Test: Storage stability at 40 °C
Format: physicochemical
Conditions: 28 days elapsed
State the answer as a number, implicitly in %.

COMPOUND | VALUE REPORTED
CCCCCCCCCCCCCCCCCCOC(=O)OOC(C)=O [acetyl peroxystearyl carbonate] | 91.5
CC(C)(C)C1CCC(OC(=O)OOC(=O)OC2CCC(C(C)(C)C)CC2)CC1 (stereo not shown) | 95.2
CC(=O)OOC(=O)OCC1CCC(COC(=O)OOC(C)=O)CC1 (stereo not shown) | 97.7

q: Using known records, supply % Purity for O=C(OCCOc1ccccc1)OOC(=O)OCCOc1ccccc1 [di(phenoxyethyl) peroxydicarbonate]
a: 91.1

----------
Assay: Storage stability at 40 °C
Type: physicochemical
Parameters: unit not given here
Conditions: 14 days elapsed
Method: APCD from Example 1 is selected as representative and was tested over a period of 89 days at 40° C. Representative peroxy carbonate and dicarbonates of the prior art are also included for comparison. Storage Stability at 40° C.
MEASURE: A.O.
Please reply with the value in numeric form only.

# annotated cases, reported A.O. shown
MOLECULE | A.O.
CC(C)(C)C1CCC(OC(=O)OOC(=O)OC2CCC(C(C)(C)C)CC2)CC1 (stereo not shown) | 3.86
O=C(OCCOc1ccccc1)OOC(=O)OCCOc1ccccc1 [di(phenoxyethyl) peroxydicarbonate] | 4.12
CCCCCCCCCCCCCCCCCCOC(=O)OOC(C)=O [acetyl peroxystearyl carbonate] | 4.00

API: the following record is the query input.
q: Identify the reported A.O. for the following entry. CC(=O)OOC(=O)OCC1CCC(COC(=O)OOC(C)=O)CC1 (stereo not shown)
a: 9.03

----------
Assay: Storage stability at 40 °C
Format: physicochemical
Set-up: unit not given here
Settings: 89 days elapsed
Entries and their A.O.

q: Note down A.O. recorded for CC(=O)OOC(=O)OCC1CCC(COC(=O)OOC(C)=O)CC1 (stereo not shown)
a: 8.58

q: State, in one line, measured A.O. of O=C(OCCOc1ccccc1)OOC(=O)OCCOc1ccccc1 [di(phenoxyethyl) peroxydicarbonate]
a: 3.23

q: # return recorded A.O. for entry CC(C)(C)C1CCC(OC(=O)OOC(=O)OC2CCC(C(C)(C)C)CC2)CC1 (stereo not shown)
a: 3.74

q: # return recorded A.O. for entry CCCCCCCCCCCCCCCCCCOC(=O)OOC(C)=O [acetyl peroxystearyl carbonate]
a: 3.38

----------
The entries below come with measured A.O. values attached.
Assay: Storage stability at 40 °C
Assay type: physicochemical
Settings: 7 days elapsed
Could you keep your reply to the number by itself?

COMPOUND | A.O.
CCCCCCCCCCCCCCCCCCOC(=O)OOC(C)=O [acetyl peroxystearyl carbonate] | 4.01
CC(=O)OOC(=O)OCC1CCC(COC(=O)OOC(C)=O)CC1 (stereo not shown) | 9.14
O=C(OCCOc1ccccc1)OOC(=O)OCCOc1ccccc1 [di(phenoxyethyl) peroxydicarbonate] | 4.17

From here, focus on the item given below.
q: Give the measured A.O. for CC(C)(C)C1CCC(OC(=O)OOC(=O)OC2CCC(C(C)(C)C)CC2)CC1 (stereo not shown)
a: 3.86
